# EXPERIMENT SUMMARY: Toxicity liver stage against HepG2, at 10uM
# Type: cell-based
# Set-up: test concentration 10 uM, cell line HepG2-A16-CD81EGFP
# CONDITION DETAILS: human, HepG2-A16-CD81EGFP cells; read-out: INHIBITION
MEASURE: cytotoxicity at 10 µM (%)
# value in %; strip the unit string

# input // lookup cytotoxicity at 10 µM for COc1cccc2c1OCC(NC(=O)NCCc1ccccn1)C2 (stereo unspecified)
# output 5.69

# input Can you share its cytotoxicity at 10 µM? I mean this compound: CCN(C(=O)COC)C(c1cccnc1)c1cc(C)cc(C)c1 (stereo unspecified)
# output -20.9

# input What does the record list as cytotoxicity at 10 µM for CCOCC1CN(CC2CCC2)Cc2nnn(CC3CC3)c21 (stereo unspecified) ?
# output 12.7

// provenance: ChEMBL document CHEMBL4513216
